Test: Cytotoxicity against human corneal fibroblasts assessed as reduction in ATP level measured after 4 hrs by Celltiter-Glo luminescent assay
Assay type: toxicity, Corneal fibroblast
OUTCOME MEASURE: CC50 at 4 h (µM)

compound=CCN(CC)CCOc1cc2oc3cc(OCCN(CC)CC)c(OC)c(CC=C(C)C)c3c(=O)c2c(O)c1CC=C(C)C relation_qualifier== value_reported=44.1
compound=CCN(CC)CCCCOc1cc2oc3cc(OCCCCN(CC)CC)c(OC)c(CC=C(C)C)c3c(=O)c2c(O)c1CC=C(C)C relation_qualifier== value_reported=19.7
compound=CCCN(CCC)CCCCOc1cc2oc3cc(OCCCCN(CCC)CCC)c(OC)c(CC=C(C)C)c3c(=O)c2c(O)c1CC=C(C)C relation_qualifier== value_reported=108
compound="COC(=O)C(CCCNC(=N)N)NC(=O)COc1cc2oc3cc(OCC(=O)NC(CCCNC(=N)N)C(=O)OC)c(OC)c(CC=C(C)C)c3c(=O)c2c(O)c1CC=C(C)C (stereo not drawn)" relation_qualifier== value_reported=13.7
compound="COc1c(OCC(=O)NC(CCCNC(=N)N)C(N)=O)cc2oc3cc(OCC(=O)NC(CCCNC(=N)N)C(N)=O)c(CC=C(C)C)c(O)c3c(=O)c2c1CC=C(C)C (stereo not drawn)" relation_qualifier== value_reported=60.1
compound=CCN(CC)CCCCCCCOc1cc2oc3cc(OCCCCCCCN(CC)CC)c(OC)c(CC=C(C)C)c3c(=O)c2c(O)c1CC=C(C)C relation_qualifier== value_reported=95.1
compound=COc1c(OCCCCN2CCOCC2)cc2oc3cc(OCCCCN4CCOCC4)c(CC=C(C)C)c(O)c3c(=O)c2c1CC=C(C)C relation_qualifier=> value_reported=150
compound=CCN(CC)CCCCOc1cc2oc3cc(OCCCCN(CC)CC)c(OC)c(CC=C(C)C)c3c(=O)c2c(OCCCCN(CC)CC)c1CC=C(C)C relation_qualifier== value_reported=43.7

* * *

Experiment: Volume of distribution in Sprague-Dawley rat at 2 mg/kg, iv administered as single bolus dose measured by LC-MS/MS method
Type: ADME, organism-based
Conditions: in vivo
OUTCOME MEASURE: Vd (L/kg)

compound_string=CCCN(CCC)CCCCOc1cc2oc3cc(OCCCCN(CCC)CCC)c(OC)c(CC=C(C)C)c3c(=O)c2c(O)c1CC=C(C)C outcome_measure=Vd value_reported=1.28

* * *

Test: Hemolytic activity against New Zealand white rabbit RBC assessed as hemoglobin release measured after 1 hr
Format: ADME, cell-based, Oryctolagus cuniculus, Erythrocyte
Conditions: red blood cells
Here, each record is paired with measured HC50 at 1 h data.
OUTCOME MEASURE: HC50 at 1 h

molecule=CCCN(CCC)CCCCOc1cc2oc3cc(OCCCCN(CCC)CCC)c(OC)c(CC=C(C)C)c3c(=O)c2c(O)c1CC=C(C)C value_reported="> 277 µM"
molecule=COc1c(OCCCCN2CCOCC2)cc2oc3cc(OCCCCN4CCOCC4)c(CC=C(C)C)c(O)c3c(=O)c2c1CC=C(C)C value_reported="> 289 µM"
molecule="CCCN(CCC)CC(O)COc1cc2oc3cc(OCC(O)CN(CCC)CCC)c(OC)c(CC=C(C)C)c3c(=O)c2c(O)c1CC=C(C)C (configuration not stated)" value_reported="> 276 µM"
molecule="COc1c(OCC(O)CNCCNC(=N)N)cc2oc3cc(OCC(O)CNCCNC(=N)N)c(CC=C(C)C)c(O)c3c(=O)c2c1CC=C(C)C (configuration not stated)" value_reported="141 µM"
molecule="CCN(CC)CC(O)COc1cc2oc3cc(OCC(O)CN(CC)CC)c(OC)c(CC=C(C)C)c3c(=O)c2c(O)c1CC=C(C)C (configuration not stated)" value_reported="108 µM"
molecule="COc1c(OCC(O)CNC(CO)(CO)CO)cc2oc3cc(OCC(O)CNC(CO)(CO)CO)c(CC=C(C)C)c(O)c3c(=O)c2c1CC=C(C)C (configuration not stated)" value_reported="33.2 µM"
molecule=CCN(CC)CCCCOc1cc2oc3cc(OCCCCN(CC)CC)c(OC)c(CC=C(C)C)c3c(=O)c2c(OCCCCN(CC)CC)c1CC=C(C)C value_reported="> 252 µM"

* * *

Biological target: CYP2D6 (Homo sapiens, UniProt P10635)
Sequence (P10635 whole entry): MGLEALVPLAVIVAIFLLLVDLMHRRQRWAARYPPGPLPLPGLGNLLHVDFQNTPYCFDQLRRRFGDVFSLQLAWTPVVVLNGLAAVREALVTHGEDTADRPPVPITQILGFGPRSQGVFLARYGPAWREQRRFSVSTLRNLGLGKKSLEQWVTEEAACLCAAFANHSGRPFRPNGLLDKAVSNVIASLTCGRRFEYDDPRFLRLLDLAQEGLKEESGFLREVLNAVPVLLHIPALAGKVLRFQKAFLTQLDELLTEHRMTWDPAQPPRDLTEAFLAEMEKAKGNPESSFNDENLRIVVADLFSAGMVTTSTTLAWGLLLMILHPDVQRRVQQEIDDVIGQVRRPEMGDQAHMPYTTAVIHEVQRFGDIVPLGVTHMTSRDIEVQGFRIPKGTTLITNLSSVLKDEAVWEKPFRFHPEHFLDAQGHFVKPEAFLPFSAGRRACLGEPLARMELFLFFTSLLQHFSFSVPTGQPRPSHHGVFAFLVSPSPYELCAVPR
Assay: Inhibition of CYP2D6 in human liver microsomes at 10 uM using bufuralol as substrate preincubated for 5 min followed by NADPH addition measured after 10 mins by LC-MS/MS method relative to control
Assay type: ADME
Settings: probe bufuralol
OUTCOME MEASURE: inhibition at 10 min, 10 µM (%)

compound_string=CCN(CC)CCCCCCCOc1cc2oc3cc(OCCCCCCCN(CC)CC)c(OC)c(CC=C(C)C)c3c(=O)c2c(O)c1CC=C(C)C measured_on="CYP2D6 (Homo sapiens, UniProt P10635)" outcome_measure="inhibition at 10 min, 10 µM" value_reported=6
compound_string=CCN(CC)CCCCOc1cc2oc3cc(OCCCCN(CC)CC)c(OC)c(CC=C(C)C)c3c(=O)c2c(OCCCCN(CC)CC)c1CC=C(C)C measured_on="CYP2D6 (Homo sapiens, UniProt P10635)" outcome_measure="inhibition at 10 min, 10 µM" value_reported=30
compound_string=CCN(CC)CCCCOc1cc2oc3cc(OCCCCN(CC)CC)c(OC)c(CC=C(C)C)c3c(=O)c2c(O)c1CC=C(C)C measured_on="CYP2D6 (Homo sapiens, UniProt P10635)" outcome_measure="inhibition at 10 min, 10 µM" value_reported=6
compound_string=CCN(CC)CCOc1cc2oc3cc(OCCN(CC)CC)c(OC)c(CC=C(C)C)c3c(=O)c2c(O)c1CC=C(C)C measured_on="CYP2D6 (Homo sapiens, UniProt P10635)" outcome_measure="inhibition at 10 min, 10 µM" value_reported=28
compound_string=COc1c(OCCCCN2CCOCC2)cc2oc3cc(OCCCCN4CCOCC4)c(CC=C(C)C)c(O)c3c(=O)c2c1CC=C(C)C measured_on="CYP2D6 (Homo sapiens, UniProt P10635)" outcome_measure="inhibition at 10 min, 10 µM" value_reported=0

* * *

Here, each record is paired with measured HC50 at 1 h data.
Assay: Hemolytic activity against New Zealand white rabbit RBC assessed as hemoglobin release measured after 1 hr
Format: ADME, cell-based, Oryctolagus cuniculus, Erythrocyte
Details: red blood cells
OUTCOME MEASURE: HC50 at 1 h

compound_string=COc1c(OCCCCN2CCSCC2)cc2oc3cc(OCCCCN4CCSCC4)c(CC=C(C)C)c(O)c3c(=O)c2c1CC=C(C)C outcome_measure="HC50 at 1 h" value_reported="> 276 µM"
compound_string=CCN(CC)CCOc1cc2oc3cc(OCCN(CC)CC)c(OC)c(CC=C(C)C)c3c(=O)c2c(O)c1CC=C(C)C outcome_measure="HC50 at 1 h" value_reported="> 328 µM"
compound_string=CCCCN(CC)CCCCOc1cc2oc3cc(OCCCCN(CC)CCCC)c(OC)c(CC=C(C)C)c3c(=O)c2c(O)c1CC=C(C)C outcome_measure="HC50 at 1 h" value_reported="> 277 µM"
compound_string=CCN(CC)CCCCOc1ccc2c(=O)c3c(O)cc(OCCCCN(CC)CC)cc3oc2c1 outcome_measure="HC50 at 1 h" value_reported="> 401 µM"
